study target: PDE5A1 (Homo sapiens)
Construct: virus made in SF9)
protocol: Inhibition of PDE5A1 activity, modified SPA (scintillation proximity assay) with recombinant enzyme
recorded conditions: recombinant PDE5A1, 0.5 μM cGMP substrate; read-out: Inhibition of the PDE5 activity (IC50)
pIC50: −log10 of the molar value.
Overview of reported pIC50 across a group of compounds:
result type: pIC50

>>> df
                      smiles_representation           study_target  experimental_result
0            O=C(O)Cc1ccccc1Nc1c(Cl)cccc1Cl  PDE5A1 (Homo sapiens)               < 4.00
1  CS(=O)(=O)c1ccc(C2=C(c3ccccc3)C(=O)OC2)cc1  PDE5A1 (Homo sapiens)               < 4.00
2        Cc1ccc(Nc2c(F)cccc2Cl)c(CC(=O)O)c1  PDE5A1 (Homo sapiens)               < 4.00
3                     CC(=O)Oc1ccccc1C(=O)O  PDE5A1 (Homo sapiens)               < 4.00
4  CCC(=O)NS(=O)(=O)c1ccc(-c2c(-c3ccccc3)noc2C)cc1  PDE5A1 (Homo sapiens)               < 4.00
5  Cc1ccc(-c2ncc(Cl)cc2-c2ccc(S(C)(=O)=O)cc2)cn1  PDE5A1 (Homo sapiens)               < 4.00
6  Cc1onc(-c2ccccc2)c1-c1ccc(S(N)(=O)=O)cc1  PDE5A1 (Homo sapiens)               < 4.00
